System: XF498
Assay: NCI tumour cell line growth inhibition, 48 h
Calls of active or inactive are those of the source. Cut-off read from the data, not from the text of the source: active = GI50 up to about 1.1 µM and inactive = higher.
Provide the reported GI50 of each item.

**Query** State, in one line, measured GI50 of "CC#N.O[C@@H]1CCCC[C@@H]1O.O[C@@H]1CCCC[C@@H]1O.[TeH2]"
**Result** > 100 µM (inactive)

**Query** Fill in reported GI50 for this entry: "O=C(O)C(Cl)(Cl)Cl"
**Result** > 100 µM (inactive)

**Query** Dear colleague, please send me the reported GI50 for O=C(c1ccc(Cl)cc1)C1OC12C(=O)Nc1c(Cl)cc(Cl)cc12 (configuration not stated) when you can.
**Result** 15.3 µM (inactive)

**Query** Answer with the recorded GI50 of O=C(Nc1ccc(Cl)c(C(F)(F)F)c1)C(=O)C(C(=O)/C=C/c1ccccc1)C1OC(=O)c2ccccc21 (configuration not stated) only.
**Result** > 100 µM (inactive)

**Query** Name the recorded GI50 of the item CN(C)CC1CCC(=C2CCCC2)C1=O (configuration not stated) in your answer.
**Result** 6.84 µM (inactive)

**Query** Report measured GI50; entry is "COc1ccc(C=O)c(NC(=O)C(C)C)c1"
**Result** 21.9 µM (inactive)

**Query** Respond only with GI50 recorded for "[O-]c1c2c(nn1-c1ccc(Cl)cc1)c1ccccc1c[n+]2Cc1ccccc1"
**Result** 35 µM (inactive)

----------
Tested on: K562
Assay: NCI tumour cell line growth inhibition, 48 h
Calls of active or inactive are those of the source. No stated cut-off is given here; in the data, active = GI50 up to about 1.1 µM and inactive = higher.
ASSAY_METRIC: GI50

**Query** Recall the reported GI50 of "COc1cc(CNC(=O)CCCCCCCCCCSC#N)ccc1O" on K562 and write it down.
**Result** 6.9 µM (inactive)

**Query** Write GI50 of COC(=O)C1(C(=O)OC)N=C(C)OC1c1ccccn1 (stereo not drawn) ; system used: K562
**Result** > 100 µM (inactive)

**Query** Provide GI50, recorded with K562, of "O=C(CC(=O)c1ccccc1)CC(O)(c1ccccc1)c1ccccc1"
**Result** 2.47 µM (inactive)

----------
System: NCI/ADR-RES
Assay: NCI tumour cell line growth inhibition, 48 h
Activity calls are given as the source filed them. No stated cut-off is given here; in the data, active = GI50 up to about 1.1 µM and inactive = higher.
Would you mind answering with one of these outcomes? active, inactive

**Query** Field: outcome | Entry: "CC1=C(C(=O)NCCc2ccccc2)CC(C(=O)NCCc2ccccc2)=C(C)N1"
**Result** inactive

**Query** Dear colleague, could you share the recorded outcome for "CCCC(=O)Nc1cn(COC)c(C(=O)N2C[C@H]3C[C@@]34C2=CC(=O)c2[nH]cc(C)c24)n1" when you have a moment?
**Result** inactive

**Query** Answer briefly: the call reported for "N#Cc1c(NC(=O)C(F)(F)F)sc2c3c(=O)c4ccccc4c(=O)c=3oc3ccccc3c12" in this assay.
**Result** inactive

**Query** Hi team, can someone confirm the assay call for CCN(CC)CCCC(C)Nc1c2ccc(Cl)cc2nc2ccc(OC)cc12 (configuration not stated) ?
**Result** inactive

**Query** For "CN(C)CCNS(=O)(=O)c1ccc(N)cc1" , what call appears in the results of this test?
**Result** inactive

**Query** Kindly provide the recorded test outcome for the following molecule: CSc1nc(NC(C)C)c2c(n1)Sc1nc3ccccc3n1C2O (configuration not stated)
**Result** inactive

**Query** Could you kindly confirm the outcome this assay logged for COc1ccc(N2C(=O)C3c4[nH]c5ccccc5c4C4CCC(C(C)C)CC4C3C2=O)cc1 (configuration not stated) ?
**Result** inactive

**Query** Fill in: this test's call for CCOC(=O)C1C(=O)CC(O)(c2ccccc2)C(C(=O)OCC)C1c1ccc(OC)cc1 (configuration not stated) is ___
**Result** inactive

**Query** Outcome? COc1cc([C@@H]2c3cc4c(cc3C[C@@H]3COC(=O)C32)OCO4)cc(OC)c1O (some centres not stated)
**Result** active

**Query** I would be grateful if you could indicate the recorded call for C=CCc1cc(C(Cc2ccccc2)NC(C)C)cc(OCc2ccccc2)c1OCc1ccccc1 (configuration not stated) .
**Result** inactive

**Query** What outcome does the record of this test show for "CCOc1ccc2c(c1)/C(=C(\C(Cl)=C(Cl)Cl)[N+](=O)[O-])N2" ?
**Result** inactive

**Query** What classification did "O=C(N/N=C\c1ccc2ccccc2c1)Nc1ccc([N+](=O)[O-])cc1" end up with in this test?
**Result** inactive

**Query** For this molecule, state the assay outcome: "NNC(=O)CC(=O)Nc1ccc(S(=O)(=O)c2ccc(NC(=O)CC(=O)NN)cc2)cc1"
**Result** inactive

**Query** Given "COc1cc(OC)cc(Oc2nc3c(N)cc(C(F)(F)F)cc3nc2-c2ccccc2)c1" , state the outcome it received in this test.
**Result** inactive

**Query** Recorded call for C=C1[C@@H]([C@@]2(C)C=CC(=O)C(C)(C)[C@@H]2CC(=O)OC)CC[C@@]2(C)[C@H](c3ccoc3)OC(=O)[C@H]3O[C@]132 [ANDIROBIN] ?
**Result** inactive

**Query** I'd appreciate the recorded outcome for "O=S(=O)(c1ccccc1)N1CCN(S(=O)(=O)c2ccccc2)c2ccccc21" from this test.
**Result** inactive

**Query** What call does the record list for COc1cc2cc(C(=O)N3CC(COS(C)(=O)=O)c4ccc(NC(=O)OCc5ccccc5)cc43)[nH]c2c(OC)c1OC (configuration not stated) ?
**Result** inactive

**Query** Recorded test call requested for CC(=O)Nc1ccc(C(=O)NN2C(=O)C(Cl)C2c2cc(Br)ccc2O)cc1 (configuration not stated)
**Result** inactive

**Query** Fill in: this test's call for "Nc1ccccc1.O=P(O)(O)c1ccccc1" is ___
**Result** inactive

**Query** For C/C=C1/CC(C)C(C)(O)C(=O)OCC2C(O)CN3CCC(OC1=O)C23 (configuration not stated) , which call appears in the assay record?
**Result** inactive

**Query** For "CC(C)(O)/C1=C/C=C/CCCCCCCCCC1" , which call appears in the assay record?
**Result** inactive

**Query** Please indicate how the test categorized COC(=O)C1(C(=O)OC)N=C(C)OC1c1ccccn1 (configuration not stated) .
**Result** inactive

----------
System: OVCAR-5
Assay: NCI tumour cell line growth inhibition, 48 h
The source made the active and inactive calls. Rule as the data show it: active = GI50 up to about 1.1 µM and inactive = higher.
Record form. Attribute: GI50. Fill in for each entry.

**Query** Determine its reported GI50: "O=[N+]([O-])c1ccc(Cc2nc3ccccc3s2)cc1"
**Result** > 100 µM (inactive)

**Query** Output measured GI50 for this item: CC(=O)C(CN(C)C)C(c1ccccc1)c1c(O)c2ccccc2oc1=O (stereo not drawn)
**Result** > 100 µM (inactive)

**Query** Please report the measured GI50 for COC(=O)C1(F)C(=O)NC(=O)NC1OC (stereo not drawn)
**Result** > 100 µM (inactive)

**Query** For the compound "CC1=NN(C(=O)c2ccc(Cl)cc2)C(=O)/C1=C/c1ccc(O)cc1" , give its reported GI50.
**Result** > 100 µM (inactive)

**Query** Give me measured GI50, please, for this compound: COc1ccc(/C=C2/SC(c3ccc(Cl)cc3)N(NC(=O)CCCCCCCCC(=O)NN3C(=O)/C(=C\c4ccc(OC)c(OC)c4)SC3c3ccc(Cl)cc3)C2=O)cc1OC (stereo not drawn)
**Result** 87.1 µM (inactive)

**Query** Give the measured GI50 for "O=C[C@@H](CO)O[C@H](C=O)c1c[nH]c(=O)[nH]c1=O"
**Result** 131 µM (inactive)

**Query** Tell me GI50 reported for "O=C(OC12CC3CC(CC(C3)C1)C2)c1ccc(NCc2cc(O)ccc2O)cc1"
**Result** 1.73 µM (inactive)

**Query** Read the entry "CCOC(=O)C1(C(=O)OCC)[C@@H](c2ccccc2)C2=NO[C@@H]3CCC[C@H]1[C@H]23" and write its reported GI50.
**Result** > 100 µM (inactive)

----------
Test system: EKVX
Assay: NCI tumour cell line growth inhibition, 48 h
Active and inactive are the calls of the source. No stated cut-off is given here; in the data, active = GI50 up to about 1.1 µM and inactive = higher.
Can you answer with just one of these options? active, inactive

**Query** # outcome recorded in this test, key = "O=c1oc2ccccc2cc1-c1cn2ccccc2n1"
**Result** inactive

**Query** Assay result, entry "CC(C)(C)OC(=O)CN1CCN(CC(=O)N2CCN(C(=O)OCc3ccccc3)CC2)CCN(CC(=O)OC(C)(C)C)CCN(CC(=O)N2CCN(C(=O)OCc3ccccc3)CC2)CC1" — outcome?
**Result** inactive

**Query** State the result this test recorded for O=C1c2ccc(O)cc2OC(c2cc(O)c(O)c(O)c2)C1O (centres undefined) [DIHYDROBINETIN] .
**Result** inactive

**Query** Just curious, what result did "CCOC(=O)C1(C(=O)OCC)[C@@H](c2ccccc2)C2=NO[C@@H]3CCC[C@H]1[C@H]23" get here?
**Result** inactive

**Query** Answer briefly: the call reported for CC(=O)OC(Cc1c(O)c2c(C)cccc2oc1=O)C(C)(C)O (centres undefined) in this assay.
**Result** inactive

**Query** Each compound tested received a call. Report the one for "O=C(/C=C/c1ccc2c(c1)OCO2)c1ccc(O)cc1" .
**Result** inactive

**Query** Give the logged outcome of this assay for the following compound: "O=S(=O)(/N=C1/S/C(=N\c2ccccc2)N(c2ccccc2)/C1=N/S(=O)(=O)c1ccccc1)c1ccccc1"
**Result** inactive

**Query** Hi, sorry to bother you, what did the test record for CC(=O)OC1[C@H]2c3cc4c(cc3CN3CCC(C[C@@H]1OC(C)=O)C23)OCO4 (some centres undefined) ?
**Result** inactive

**Query** In this assay, the call recorded for c1ccc(N2CCN(CCN3CCc4c([nH]c5ccccc45)C3c3cccnc3)CC2)cc1 (centres undefined) was what?
**Result** inactive

**Query** Please state the recorded outcome for this compound: "FC(F)(F)c1nc(-c2ccccc2)oc1Sc1oc(-c2ccccc2)nc1C(F)(F)F"
**Result** inactive

**Query** For this compound, state the assay outcome: COC1=CC2(C=CC1=O)c1cc(OC)c(OC)cc1CCN2C(=O)c1ccccc1 (centres undefined)
**Result** inactive

**Query** Could you please tell me the result logged for "NC(=O)NC(=O)c1ccc(NC(=O)CBr)cc1" in this assay?
**Result** inactive

**Query** I would be grateful if you could indicate the recorded call for "CC1(C)OC(=O)C(C#N)=C1/C=C/c1coc2ccc(Cl)cc2c1=O" .
**Result** inactive

**Query** Record request — test call for C[C@@H]1CCC2[C@@H](C)[C@H](O[C@H]3O[C@@H]4O[C@@]5(C)CCC6[C@H](C)CCC([C@H]3C)[C@]64OO5)O[C@@H]3O[C@@]4(C)CCC1[C@@]23OO4 (some centres undefined)
**Result** active

**Query** For "COc1ccc(C=O)c(NC(=O)C(C)C)c1" , what call appears in the results of this test?
**Result** inactive

**Query** GET /call?item= NCC1OC(n2cnc3c(N)ncnc32)CC1O (centres undefined) returns the recorded outcome of this test.
**Result** inactive

**Query** Short answer needed: outcome of this test for "Cc1ccccc1/N=C/c1ccc(N(CCC#N)S(=O)(=O)c2ccccc2)cc1" ?
**Result** inactive

**Query** Called result for Cc1ccccc1OC(C)C(=O)NN1C(=O)CC(=O)N(c2ccccc2)C1=S (centres undefined)
**Result** inactive

**Query** Hi, sorry to bother you, what did the test record for CCOc1ccc(C2=C(Cl)c3cc(OC)c(OC)cc3C2Cl)cc1 (centres undefined) ?
**Result** inactive
